Taken from patent US20230278972A1.

Tested on: Ryegrass, Italian (Italian ryegrass, Lolium multiflorum)
EXPERIMENT_NOTES: Test A1 preemergence, Ryegrass, Italian
Assay type: in vivo
CONDITION_PARAMETERS: 31 g ai/ha, 0 to 100 scale (0 no effect, 100 complete control)
Attribute: Plant response rating, Ryegrass, Italian
Reply with just the number.

- COMPOUND: "Cc1c(C2=NO[C@@H]3CCC[C@H]23)cc(N(COC(=O)C(C)(C)C)S(=O)(=O)C(F)(F)F)c(C)c1C [Compound 336]"
  ASSAYED_TARGET: "Ryegrass, Italian (Italian ryegrass, Lolium multiflorum)"
  VALUE_OBSERVED: 30

Next, consider the following compound.
Task: Fill in: Plant response rating, Ryegrass, Italian of COc1cnn(-c2cc(NS(=O)(=O)C(F)(F)F)c(C)cc2C)c(=O)c1OC [Compound 282] is ___
Output: 0

====

System: Foxtail, Giant (giant foxtail, Setaria faberi)
EXPERIMENT_NOTES: Test A1 postemergence, Foxtail, Giant
Format: in vivo
CONDITION_PARAMETERS: Postemergence, 125 g ai/ha; 0 to 100 scale (0 no effect, 100 complete control); 10 days
MEASURED_PROPERTY: Plant response rating, Foxtail, Giant
Response field accepts a number only; no unit should be typed.

Below, 2 molecules whose answers are already recorded.
- MOLECULE: "Cc1c(NS(=O)(=O)C(F)(F)F)cc(C2=NOC3(CCCC3)C2)c(C)c1C [Compound 380]"
  Plant response rating, Foxtail, Giant: 80
- MOLECULE: "COc1cccc2c1C(=O)N(c1cc(N(COC(=O)C(C)(C)C)S(=O)(=O)Cl)c(C)cc1C)C2 [Compound 413]"
  Plant response rating, Foxtail, Giant: 10

Task: Return reported Plant response rating, Foxtail, Giant; argument: Cc1cc(C)c(N(COC(=O)C(C)(C)C)S(=O)(=O)C(F)(F)F)cc1N1CCC2(CCC(C(F)(F)F)CC2)C1=O (stereo not shown) [Compound 403]
Output: 0

Task: Item Cc1cc(Cl)c(NS(=O)(=O)C(F)(F)F)cc1N1CC2(CCCCC2)OC1=O [Compound 394] has what recorded Plant response rating, Foxtail, Giant?
Output: 50

Task: Fill in: Plant response rating, Foxtail, Giant of Cc1cc(C)c(N2CC3(CCCCC3)CC2=O)cc1NS(=O)(=O)C(F)(F)F [Compound 392] is ___
Output: 0

Task: Requested read-out: Plant response rating, Foxtail, Giant. Entry: Cc1c(C2=NOC3(CCCC3)C2)cc(N(COC(=O)C(C)(C)C)S(=O)(=O)C(F)(F)F)c(C)c1C [Compound 382]
Output: 50

Task: Which Plant response rating, Foxtail, Giant value is on record for Cc1cc(C)c(N2CCC3(CCC(C)CC3)C2=O)cc1NS(=O)(=O)C(F)(F)F (stereo not shown) [Compound 402] ?
Output: 20

====

System: Ryegrass, Italian (Italian ryegrass, Lolium multiflorum)
EXPERIMENT_NOTES: Test A preemergence, Ryegrass, Italian
Format: in vivo
CONDITION_PARAMETERS: Preemergence, 31 g ai/ha; visual injury, 0 to 100 scale (0 no effect, 100 complete control), approx. 10 days
MEASURED_PROPERTY: Plant response rating, Ryegrass, Italian
Response field accepts a number only; no unit should be typed.

- COMPOUND: "Cc1cc(C(=O)N2CCOC(C)(C)C2)cc(NS(=O)(=O)C(F)(F)F)c1Cl [Compound 2]"
  Plant response rating, Ryegrass, Italian: 30
- COMPOUND: "Cc1cc(C)c(N(COC(=O)C2CCCCC2)S(=O)(=O)C(F)(F)F)cc1C1=NOC2(CCCC2)C1 [Compound 148]"
  Plant response rating, Ryegrass, Italian: 30

Task: Query: Plant response rating, Ryegrass, Italian; subject: Cc1cc(Cl)c(NS(=O)(=O)C(F)(F)F)cc1C(=O)N1CCOC(C)C1 (centres unmarked) [Compound 1]
Output: 40

Task: // returns reported Plant response rating, Ryegrass, Italian for input Cc1cc(C)c(N2CC3(CCOCC3)OC2=O)cc1NS(=O)(=O)C(F)(F)F [Compound 156]
Output: 50

Task: Which measured Plant response rating, Ryegrass, Italian value corresponds to COC1CCCN(C(=O)c2cc(NS(=O)(=O)C(F)(F)F)c(C)c(F)c2C)C1 (centres unmarked) [Compound 98] ?
Output: 30

====

Test system: kochia (Bassia scoparia)
EXPERIMENT_NOTES: Test A preemergence, kochia
Assay type: in vivo
CONDITION_PARAMETERS: Preemergence, 125 g ai/ha; visual injury, 0 to 100 scale (0 no effect, 100 complete control), approx. 10 days
# Plant response rating, Kochia >= 70 gives T, anything below gives F

Known results for compounds:
- COMPOUND: "Cc1cc(Cl)c(C(=O)N2CCCCC2)cc1NS(=O)(=O)C(F)(F)F"
  LABEL_VALUE: "F"
- COMPOUND: "Cc1cc(F)c(C(=O)N2CC(C)OC(C)C2)cc1NS(=O)(=O)C(F)(F)F (stereo not shown)"
  LABEL_VALUE: "T"
- COMPOUND: "Cc1cc(Cl)c(C(=O)N2CCOCC2)cc1NS(=O)(=O)C(F)(F)F"
  LABEL_VALUE: "T"
- COMPOUND: "Cc1cc(C)c(N(S(=O)(=O)C(F)(F)F)S(=O)(=O)C(F)(F)F)cc1C(=O)N1CCC(F)(F)CC1"
  LABEL_VALUE: "F"
- COMPOUND: "C#CCN(C)C(=O)c1cc(NS(=O)(=O)C(F)(F)F)c(C)cc1C"
  LABEL_VALUE: "T"

Task: Does the reported Plant response rating, Kochia for `Cc1cc(C)c(C2=NOC3(CCCCCC3)C2)cc1NS(=O)(=O)C(F)(F)F` fall at or above the 70 mark?
Output: T

Task: For this compound, is measured Plant response rating, Kochia 70 or higher? `Cc1cc(Cl)c(NS(=O)(=O)C(F)(F)F)cc1C(=O)N1CCC(Cl)CC1`
Output: F

Task: Would you say `Cc1cc(C)c(N2CC3(CCCCC3)OC2=O)cc1NS(=O)(=O)C(F)(F)F` shows Plant response rating, Kochia at minimum 70?
Output: T

====

System: galium (catchweed bedstraw, Galium aparine)
EXPERIMENT_NOTES: Test A1 postemergence, galium
Type: in vivo
CONDITION_PARAMETERS: Postemergence, 125 g ai/ha; 0 to 100 scale
List of Plant response rating, Galium values.
Respond using a number only.

Examples with their reported Plant response rating, Galium follow.
- COMPOUND: "Cc1cc(C)c(-n2nccc(C)c2=O)cc1NS(=O)(=O)C(F)(F)F [Compound 281]"
  Plant response rating, Galium: 0
- COMPOUND: "Cc1c(C(=O)N2C[C@@H](C)O[C@H](C)C2)cc(N(COC(=O)C(C)(C)C)S(=O)(=O)C(F)(F)F)c(C)c1C (relative stereo) [Compound 373]"
  Plant response rating, Galium: 70
- COMPOUND: "CCC1CC(c2cc(NS(=O)(=O)C(F)(F)F)c(C)cc2C)=NO1 (stereo not shown) [Compound 375]"
  Plant response rating, Galium: 20
- COMPOUND: "Cc1c(C(=O)N2CCC(F)CC2)cc(N(COC(=O)C(C)(C)C)S(=O)(=O)C(F)(F)F)c(C)c1C [Compound 361]"
  Plant response rating, Galium: 90
- COMPOUND: "COc1cc(C)c(NS(=O)(=O)C(F)(F)F)cc1C1=NOC2CCCC12 (stereo not shown) [Compound 312]"
  Plant response rating, Galium: 30
- COMPOUND: "Cc1c(C(=O)N2CCOCC2)cc(N(COC(=O)C(C)(C)C)S(=O)(=O)C(F)(F)F)c(C)c1C [Compound 324]"
  Plant response rating, Galium: 80
- COMPOUND: "CCC1ON=C(c2cc(NS(=O)(=O)C(F)(F)F)c(C)cc2C)C1CC (stereo not shown) [Compound 346]"
  Plant response rating, Galium: 100
- COMPOUND: "Cc1cc(C)c(C2=NOC3COCC23)cc1NS(=O)(=O)C(F)(F)F (stereo not shown) [Compound 297]"
  Plant response rating, Galium: 90
- COMPOUND: "Cc1cc(C)c(N(COC(=O)C(C)(C)C)S(=O)(=O)C(F)(F)F)cc1C(=O)N1CCC(F)(F)CC1 [Compound 350]"
  Plant response rating, Galium: 90
- COMPOUND: "CCOC(=O)N(c1cc(C(=O)N2CCCCC2)c(C)c(C)c1C)S(=O)(=O)C(F)(F)F [Compound 330]"
  Plant response rating, Galium: 60

Task: # query: Plant response rating, Galium of entry C#CCN(C)C(=O)c1cc(NS(=O)(=O)C(F)(F)F)c(C)c(C)c1C [Compound 368]
Output: 100

Task: Fill in: Plant response rating, Galium of CCC1ON=C(c2cc(NS(=O)(=O)C(F)(F)F)c(C)cc2C)C1CC (stereo not shown) [Compound 343] is ___
Output: 100

Task: Recorded Plant response rating, Galium for COC1CCN(C(=O)c2cc(NS(=O)(=O)C(F)(F)F)c(C)c(C)c2C)CC1 [Compound 367] , please?
Output: 100

Task: Need Plant response rating, Galium, item Cc1cc(C)c(N(COC(=O)C(C)(C)C)S(=O)(=O)C(F)(F)F)cc1C1=NOC2CCCCCC12 (single isomer, unassigned) [Compound 294]
Output: 70

Task: Look up Plant response rating, Galium for this compound: CCOC(=O)N(c1cc(C(=O)N2CCOCC2)c(C)c(C)c1C)S(=O)(=O)C(F)(F)F [Compound 325]
Output: 90
